assay: Plasma concentration after a single oral dose of the anxiolytic fraction (HPLC); format: in vivo, ICR mice; details: mouse, plasma; 60 min after single oral dose of 200 mg/kg of the anxiolytic fraction; ICR mice, n = 10
quantity-measured: concentration at 60 min (ng/mL)

O=C(O)Cc1ccc(O)cc1 [p-HPAA, para-hydroxyphenylacetic acid]: 5310

(P) O=C(O)Cc1ccc(O)c(O)c1 [DOPAC, 3,4-dihydroxyphenylacetic acid]
(Q) O=C(O)Cc1cccc(O)c1 [m-HPAA, meta-hydroxyphenylacetic acid]
Prompt: For the pair P and Q , which member has the lower concentration at 60 min number? In your reply, give the label of the chosen option.
Response: Q
(Q: 4290 ng/mL, P: 6880 ng/mL)

* * *

experiment: Stability of flavonoids and biotransformation products in mouse plasma under different handling conditions; type: in vitro ADME, mice; conditions: storage stability; low nominal conc.
quantity-measured: Accuracy Bias Autosampler (4 °C; 8 h) (%)

Recorded Accuracy Bias Autosampler (4 °C; 8 h), per entry:
O=C(O)Cc1ccc(O)cc1 [p-HPAA, para-hydroxyphenylacetic acid]: 1.26
O=c1c(O)c(-c2ccc(O)cc2)oc2cc(O)cc(O)c12 [Kaempferol, kaempferol]: −7.77
C[C@@H]1O[C@@H](OC[C@H]2O[C@@H](Oc3c(-c4ccc(O)c(O)c4)oc4cc(O)cc(O)c4c3=O)[C@H](O)[C@@H](O)[C@@H]2O)[C@H](O)[C@H](O)[C@H]1O [Rutin, rutin]: −6.41
C[C@@H]1O[C@@H](Oc2c(-c3ccc(O)c(O)c3)oc3cc(O)cc(O)c3c2=O)[C@H](O)[C@H](O)[C@H]1O [Quercitrin, quercitrin]: −5.47

(1) O=C(O)Cc1cccc(O)c1 [m-HPAA, meta-hydroxyphenylacetic acid]
(2) O=C(/C=C/c1ccc(O)cc1)OC[C@H]1O[C@@H](Oc2c(-c3ccc(O)cc3)oc3cc(O)cc(O)c3c2=O)[C@H](O)[C@@H](O)[C@@H]1O [Tiliroside, tiliroside]
(3) O=C(O)Cc1ccc(O)c(O)c1 [DOPAC, 3,4-dihydroxyphenylacetic acid]
(4) O=c1c(O[C@@H]2O[C@H](CO)[C@@H](O)[C@H](O)[C@H]2O)c(-c2ccc(O)c(O)c2)oc2cc(O)cc(O)c12 [Quercetin glucoside, quercetin glucoside]
Prompt: Order the records so the highest Accuracy Bias Autosampler (4 °C; 8 h) appears first and the lowest last. Your task in answering is to list the labels in the requested order.
Response: 2, 4, 3, 1

* * *

experiment: Stability of flavonoids and biotransformation products in mouse plasma under different handling conditions; type: in vitro ADME, mice; conditions: room temperature (25 °C), 24 h; high nominal conc.
quantity-measured: Accuracy Bias 24 h (%)

Recorded Accuracy Bias 24 h, per entry:
O=c1c(O[C@@H]2O[C@H](CO)[C@@H](O)[C@H](O)[C@H]2O)c(-c2ccc(O)c(O)c2)oc2cc(O)cc(O)c12 [Quercetin glucoside, quercetin glucoside]: 6.76
C[C@@H]1O[C@@H](Oc2c(-c3ccc(O)c(O)c3)oc3cc(O)cc(O)c3c2=O)[C@H](O)[C@H](O)[C@H]1O [Quercitrin, quercitrin]: 1.05
O=c1c(O)c(-c2ccc(O)cc2)oc2cc(O)cc(O)c12 [Kaempferol, kaempferol]: 1.77
C[C@@H]1O[C@@H](OC[C@H]2O[C@@H](Oc3c(-c4ccc(O)c(O)c4)oc4cc(O)cc(O)c4c3=O)[C@H](O)[C@@H](O)[C@@H]2O)[C@H](O)[C@H](O)[C@H]1O [Rutin, rutin]: −3.93

(I) O=C(O)Cc1cccc(O)c1 [m-HPAA, meta-hydroxyphenylacetic acid]
(II) O=C(O)Cc1ccc(O)cc1 [p-HPAA, para-hydroxyphenylacetic acid]
(III) O=C(O)Cc1ccc(O)c(O)c1 [DOPAC, 3,4-dihydroxyphenylacetic acid]
(IV) O=C(/C=C/c1ccc(O)cc1)OC[C@H]1O[C@@H](Oc2c(-c3ccc(O)cc3)oc3cc(O)cc(O)c3c2=O)[C@H](O)[C@@H](O)[C@@H]1O [Tiliroside, tiliroside]
Prompt: Order the records so the highest Accuracy Bias 24 h appears first and the lowest last. Your task in answering is to list the labels in the requested order.
Response: IV, II, I, III
(IV: 7.03%, II: 1.26%, I: 0.30%, III: 0.19%)
